Some molecules, each annotated with its measured Percent Effect.
Tested on: Wolbachia pipientis
EXPERIMENT DESCRIPTION: Anti-Wolbachia Cell-Based Screen
Type: functional
Design: scale not given: in the data most compounds retested in dose-response had high values
MEASUREMENT CONDITIONS: 5 µM
In all, about 48,000 compounds went through this assay and about 13,000 (27%) showed an effect of 50% or more. Some of the results follow.

The examples below pair each entry with its known result.
STRUCTURE SMILES STRING	TARGET	Percent Effect
C[C@@H]1CN(C(=O)c2ccncc2)CC[C@@]1(O)C1CCOCC1	Wolbachia pipientis	-11.61%
CCCS(=O)(=O)N1C[C@@H](c2ccccc2)[C@@]2(CCNC2=O)C1	Wolbachia pipientis	108.5%

Shift focus to the following entry.
Query :: Lab request: please report Percent Effect under test system Wolbachia pipientis for Cn1cccc1CNC(=O)CCCc1nnc2ccccn12
Result :: 14.24%

====

Some compounds, each annotated with its measured Percent Effect.
Tested on: Wolbachia pipientis
EXPERIMENT DESCRIPTION: Anti-Wolbachia Cell-Based Screen
Format: functional
Set-up: scale not given: in the data most compounds retested in dose-response had high values
MEASUREMENT CONDITIONS: 5 µM
Hit rate of the full screen: of about 48,000 compounds, about 13,000 (27%) showed an effect of 50% or more. Some of the results follow.
Quick note: give the figure in %, leave out the unit.

Query :: Please give the measured Percent Effect for this compound: O=C(c1cc(Cl)c2c(c1)OCO2)N1CCCC(n2ccnc2)C1 (centres undefined)
Result :: 1.53

Query :: Please give the measured Percent Effect for this compound: CN(C)S(=O)(=O)Nc1ccc(-n2nncc2C(F)(F)F)cc1
Result :: -14.8

Query :: Please give the measured Percent Effect for this compound: CCN(Cc1noc(CC(C)C)n1)Cc1ccccc1C(=O)O
Result :: 3.594

Query :: Please give the measured Percent Effect for this compound: CCC(C)(NCc1cccc(NC(C)=O)c1)c1nc(C)cs1 (centres undefined)
Result :: -6.571

====

System: Wolbachia pipientis
EXPERIMENT DESCRIPTION: Anti-Wolbachia Cell-Based Screen
Type: functional
Set-up: scale not given: in the data most compounds retested in dose-response had high values
MEASUREMENT CONDITIONS: 5 µM
Out of some 48,000 compounds screened, about 13,000 (27%) showed an effect of 50% or more. The list shows a part of the results.
MEASURED QUANTITY: Percent Effect (%)
Quick note: give the figure in %, leave out the unit.

COMPOUND	UNIT NAME	Percent Effect
CC(C)CNC(=O)[C@H]1CCS(=O)(=O)[C@@H]2CN(Cc3ccc(Cl)cc3)C[C@H]12.O=C(O)C(F)(F)F	%	20.84
N#Cc1cccnc1NC1CCN(c2ccccc2OC(F)F)C1=O (configuration not stated)	%	-11.66
CCOC(C)c1nc(CN2CCN(CC(F)F)CC2)cs1 (configuration not stated)	%	-28.37
CN1CCN(Cc2cn3c(n2)CN(C(=O)c2cccn2C)CC3)CC1.O=C(O)C(F)(F)F.O=C(O)C(F)(F)F	%	2.395
c1cc(-c2ccc3c(c2)C2(CCNCC2)CC3)ccn1	%	-17.91
CN1CCN(Cc2cn3c(n2)CN(Cc2cccc(F)c2)CC3)CC1.O=C(O)C(F)(F)F.O=C(O)C(F)(F)F.O=C(O)C(F)(F)F	%	118.6
CCOC(=O)C1CCN(c2nccc(-n3nc(C)cc3C)n2)CC1	%	112.2
CN1CCC2(CC1)CN(CC1CC1)CC21CCNC1=O.O=C(O)C(F)(F)F.O=C(O)C(F)(F)F (configuration not stated)	%	-40.68

Query :: Please give the measured Percent Effect for this compound: CN1CCN(Cc2cn3c(n2)CN(Cc2ccc(F)cc2)CC3)CC1.O=C(O)C(F)(F)F.O=C(O)C(F)(F)F.O=C(O)C(F)(F)F
Result :: 107.8

Query :: Please give the measured Percent Effect for this compound: CC(C)CNC(=O)[C@H]1CCS(=O)(=O)[C@@H]2CN(CC(C)C)C[C@H]12.O=C(O)C(F)(F)F
Result :: 102.6

Query :: Please give the measured Percent Effect for this compound: O=C(O)CSc1nnc(-c2ccn[nH]2)n1-c1ccccc1C(F)(F)F
Result :: -29.49

Query :: Please give the measured Percent Effect for this compound: Cc1cc2nc(CO[C@H]3CN(C4CCCCC4)C[C@H]3F)[nH]c2cc1C
Result :: 9.281
